# UniProtKB P07711: log10 Ki values follow
# Sequence (P07711 whole entry): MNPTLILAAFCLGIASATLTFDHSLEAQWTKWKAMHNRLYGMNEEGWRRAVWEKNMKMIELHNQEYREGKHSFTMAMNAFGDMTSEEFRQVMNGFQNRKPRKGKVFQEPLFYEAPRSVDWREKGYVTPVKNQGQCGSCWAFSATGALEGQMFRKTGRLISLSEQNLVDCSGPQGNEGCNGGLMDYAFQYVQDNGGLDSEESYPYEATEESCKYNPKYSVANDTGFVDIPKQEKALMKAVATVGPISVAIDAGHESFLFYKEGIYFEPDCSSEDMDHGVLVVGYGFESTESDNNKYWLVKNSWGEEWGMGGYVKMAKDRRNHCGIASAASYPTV
quantity-kind: log10 Ki (log10 of the value in µM)

>  <chem-smiles>
CC(C)(C)OC(=O)NN(C#N)CC(=O)N(Cc1ccccc1)Cc1ccccc1

>  <log10 Ki>
-0.73

$$$$
>  <chem-smiles>
CN(Cc1ccccc1)C(=O)CN(C#N)NC(=O)OC(C)(C)C

>  <log10 Ki>
-0.64

$$$$
>  <chem-smiles>
CCCN1CCN(c2ccc(C(=O)NC3(C(=O)NCC#N)CCCCC3)cc2)CC1

>  <log10 Ki>
0.51

$$$$
>  <chem-smiles>
CC(C)(C)OC(=O)NN(C#N)CC(=O)N1CCOCC1

>  <log10 Ki>
-0.24

$$$$
>  <chem-smiles>
CN(C(=O)OC(C)(C)C)N(C#N)CC(=O)N1CCOCC1

>  <log10 Ki>
0.23

$$$$

====

- test-system: Cathepsin S (Homo sapiens)
- assay-text: Inhibition of human cathepsin S assessed as second order rate constant using Z-Phe-Arg-AMC fluorogenic substrate incubated for 60 mins
- Sequence (P25774 115-331 limits assumed): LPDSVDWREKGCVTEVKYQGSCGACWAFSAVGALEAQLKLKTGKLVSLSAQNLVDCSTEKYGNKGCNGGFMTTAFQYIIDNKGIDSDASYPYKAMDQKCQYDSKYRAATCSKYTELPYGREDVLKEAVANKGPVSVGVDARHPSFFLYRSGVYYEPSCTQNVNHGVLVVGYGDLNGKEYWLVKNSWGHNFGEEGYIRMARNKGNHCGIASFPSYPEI
Some molecules, each annotated with its measured K.

>  <chem-smiles>
CN(Cc1ccccc1)C(=O)CN(C#N)NC(=O)OC(C)(C)C

>  <test-system>
Cathepsin S (Homo sapiens)

>  <K>
1590 ×10³ /M/s

$$$$
>  <chem-smiles>
CC(C)(C)OC(=O)NN(C#N)CC(=O)N(Cc1ccccc1)Cc1ccccc1

>  <test-system>
Cathepsin S (Homo sapiens)

>  <K>
2580 ×10³ /M/s

$$$$
>  <chem-smiles>
CN(C(=O)OC(C)(C)C)N(C#N)CC(=O)N1CCOCC1

>  <test-system>
Cathepsin S (Homo sapiens)

>  <K>
0.461 ×10³ /M/s

$$$$
>  <chem-smiles>
CC(C)(C)OC(=O)NN(C#N)CC(=O)N1CCOCC1

>  <test-system>
Cathepsin S (Homo sapiens)

>  <K>
757 ×10³ /M/s

$$$$

====

- test-system: Cathepsin S (Homo sapiens, UniProt P25774)
Binary call on Ki with cut-off 800 nM: strictly below means Criterion met, and equality or higher means Criterion not met.

>  <chem-smiles>
CC(C)(C)OC(=O)NN(C#N)CC(=O)N1CCOCC1

>  <qualitative-label>
Criterion met

$$$$
>  <chem-smiles>
CCCN1CCN(c2ccc(C(=O)NC3(C(=O)NCC#N)CCCCC3)cc2)CC1

>  <qualitative-label>
Criterion not met

$$$$
>  <chem-smiles>
CC(C)(C)OC(=O)NN(C#N)CC(=O)N(Cc1ccccc1)Cc1ccccc1

>  <qualitative-label>
Criterion met

$$$$
>  <chem-smiles>
CN(Cc1ccccc1)C(=O)CN(C#N)NC(=O)OC(C)(C)C

>  <qualitative-label>
Criterion met

$$$$

====

- test-system: Cathepsin K (Homo sapiens) (UniProt P43235)
- Sequence (P43235 whole entry, looked up): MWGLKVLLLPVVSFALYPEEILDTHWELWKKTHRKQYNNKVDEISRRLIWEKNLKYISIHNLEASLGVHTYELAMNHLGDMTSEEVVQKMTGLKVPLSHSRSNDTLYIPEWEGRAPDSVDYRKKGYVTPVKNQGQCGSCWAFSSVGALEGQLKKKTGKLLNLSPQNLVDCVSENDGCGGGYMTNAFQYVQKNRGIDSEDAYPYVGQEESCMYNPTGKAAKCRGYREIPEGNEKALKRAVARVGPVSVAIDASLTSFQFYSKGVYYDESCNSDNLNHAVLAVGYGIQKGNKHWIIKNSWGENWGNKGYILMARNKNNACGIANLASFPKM
- assay-text: Inhibition of human cathepsin K assessed as second order rate constant using Z-Leu-Arg-AMC fluorogenic substrate incubated for 60 mins
Collected K values appear next to each entry.

>  <chem-smiles>
CN(C(=O)OC(C)(C)C)N(C#N)CC(=O)N1CCOCC1

>  <K>
4.05 ×10³ /M/s

$$$$
>  <chem-smiles>
CN(Cc1ccccc1)C(=O)CN(C#N)NC(=O)OC(C)(C)C

>  <K>
28900 ×10³ /M/s

$$$$
>  <chem-smiles>
CC(C)(C)OC(=O)NN(C#N)CC(=O)N(Cc1ccccc1)Cc1ccccc1

>  <K>
52900 ×10³ /M/s

$$$$
>  <chem-smiles>
CC(C)(C)OC(=O)NN(C#N)CC(=O)N1CCOCC1

>  <K>
19000 ×10³ /M/s

$$$$
